Field: kon. Provide a value for each of the binders that follow.
Target: T1, Recombinant Human TNF-α/TNFSF1A (human, UniProt P01375 77-233)
T1 construct: also called hTNF-α; huTNFα
T1 sequence (P01375 77-233 limits assumed): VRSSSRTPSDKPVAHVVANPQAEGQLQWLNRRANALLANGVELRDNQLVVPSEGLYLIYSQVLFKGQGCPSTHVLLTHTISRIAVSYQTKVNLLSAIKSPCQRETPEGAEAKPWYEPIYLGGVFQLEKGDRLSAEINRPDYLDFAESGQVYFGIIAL
Test: SPR (BIACORE), antibody captured, TNFα in solution
Give bare numbers, in M⁻¹ s⁻¹.

Examples from the recorded data:
>>> measured("AB378 (antibody, V domains shown, Full-length humanized antibody made in HEK 293-6E; also called hMAK199VH.2a/hMAK199VL.2) VH: EIQLVQSGAEVKKPGASVKVSCKASGYTFTNYGMNWVRQAPGQGLEWMGWINTYTGEPTYADDFKGRFTFTLDTSTSTAYMELSSLRSEDTAVYFCARKFLTTVVVTDYAMDYWGQGTTVTVSS VL: DVVMTQSPAFLSVTPGEKVTITCRASQDISNYLNWYQQKPDQAPKLLIKYTSRLQSGVPSRFSGSGSGTDFTFTISSLEAEDAATYYCQQGNTLPPTFGQGTKLEIK")
880000
>>> measured("AB371 (antibody, V domains shown, Full-length humanized antibody made in HEK 293-6E; also called hMAK199VH.2/hMAK199VL.1b) VH: EVQLVQSGAEVKKPGASVKVSCKASGYTFTNYGMNWVRQAPGQGLEWMGWINTYTGEPTYADDFKGRVTMTTDTSTSTAYMELSSLRSEDTAVYYCARKFLTTVVVTDYAMDYWGQGTTVTVSS VL: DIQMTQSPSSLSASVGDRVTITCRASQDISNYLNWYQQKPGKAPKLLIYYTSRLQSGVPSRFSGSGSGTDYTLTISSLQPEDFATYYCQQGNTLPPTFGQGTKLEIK")
"1.5e+06"
>>> measured("AB382 (antibody, V domains shown, Full-length humanized antibody made in HEK 293-6E; also called hMAK199VH.2b/hMAK199VL.1a) VH: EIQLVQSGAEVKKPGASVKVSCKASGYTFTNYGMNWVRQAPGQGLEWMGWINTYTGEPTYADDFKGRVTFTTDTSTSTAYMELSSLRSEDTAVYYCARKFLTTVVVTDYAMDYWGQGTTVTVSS VL: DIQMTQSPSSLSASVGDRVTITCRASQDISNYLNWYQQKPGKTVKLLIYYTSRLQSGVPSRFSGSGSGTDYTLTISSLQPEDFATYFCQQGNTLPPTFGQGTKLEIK")
740000
>>> measured("AB361 (antibody, V domains shown, Full-length humanized antibody made in HEK 293-6E; also called hMAK199VH.1a/hMAK199VL.2a) VH: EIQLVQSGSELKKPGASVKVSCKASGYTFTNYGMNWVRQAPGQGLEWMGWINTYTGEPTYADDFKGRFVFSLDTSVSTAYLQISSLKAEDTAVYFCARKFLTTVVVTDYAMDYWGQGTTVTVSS VL: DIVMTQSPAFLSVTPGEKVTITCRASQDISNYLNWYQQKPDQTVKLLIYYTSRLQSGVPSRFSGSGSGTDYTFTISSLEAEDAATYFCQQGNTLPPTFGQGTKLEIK")
"1.2e+06"
>>> measured("AB352 (antibody, V domains shown, Full-length humanized antibody made in HEK 293-6E; also called hMAK199VH.1/hMAK199VL.1a) VH: EVQLVQSGSELKKPGASVKVSCKASGYTFTNYGMNWVRQAPGQGLEWMGWINTYTGEPTYADDFKGRFVFSLDTSVSTAYLQISSLKAEDTAVYYCARKFLTTVVVTDYAMDYWGQGTTVTVSS VL: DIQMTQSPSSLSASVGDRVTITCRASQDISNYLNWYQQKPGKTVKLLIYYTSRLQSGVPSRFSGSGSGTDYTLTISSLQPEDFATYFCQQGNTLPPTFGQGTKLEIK")
"2.1e+06"
>>> measured("AB362 (antibody, V domains shown, Full-length humanized antibody made in HEK 293-6E; also called hMAK199VH.1a/hMAK199VL.2b) VH: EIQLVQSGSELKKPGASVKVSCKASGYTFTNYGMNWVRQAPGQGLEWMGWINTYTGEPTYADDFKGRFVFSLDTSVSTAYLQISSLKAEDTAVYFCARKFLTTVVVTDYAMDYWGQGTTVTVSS VL: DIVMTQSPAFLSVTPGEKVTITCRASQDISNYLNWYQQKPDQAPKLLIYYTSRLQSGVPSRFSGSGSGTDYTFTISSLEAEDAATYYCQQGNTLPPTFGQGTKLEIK")
"1.3e+06"

Provide kon for all items below, preserving their order.
1. AB372 (antibody, V domains shown, Full-length humanized antibody made in HEK 293-6E; also called hMAK199VH.2/hMAK199VL.2) VH: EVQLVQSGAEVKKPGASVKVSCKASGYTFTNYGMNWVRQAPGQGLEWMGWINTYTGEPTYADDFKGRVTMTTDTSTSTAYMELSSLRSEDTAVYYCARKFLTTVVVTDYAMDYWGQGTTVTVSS VL: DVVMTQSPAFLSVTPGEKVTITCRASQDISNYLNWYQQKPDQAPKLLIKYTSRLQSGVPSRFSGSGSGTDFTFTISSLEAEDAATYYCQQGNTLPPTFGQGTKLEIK
2. AB380 (antibody, V domains shown, Full-length humanized antibody made in HEK 293-6E; also called hMAK199VH.2a/hMAK199VL.2b) VH: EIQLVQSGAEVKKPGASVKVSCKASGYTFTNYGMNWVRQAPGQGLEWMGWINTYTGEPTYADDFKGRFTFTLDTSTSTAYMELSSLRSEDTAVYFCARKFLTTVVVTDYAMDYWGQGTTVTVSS VL: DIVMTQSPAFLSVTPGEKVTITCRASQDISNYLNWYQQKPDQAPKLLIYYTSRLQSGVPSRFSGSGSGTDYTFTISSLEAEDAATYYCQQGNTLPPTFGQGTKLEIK
3. AB383 (antibody, V domains shown, Full-length humanized antibody made in HEK 293-6E; also called hMAK199VH.2b/hMAK199VL.1b) VH: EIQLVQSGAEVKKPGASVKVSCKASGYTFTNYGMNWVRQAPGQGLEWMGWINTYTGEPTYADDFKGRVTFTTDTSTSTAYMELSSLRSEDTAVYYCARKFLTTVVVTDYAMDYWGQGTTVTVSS VL: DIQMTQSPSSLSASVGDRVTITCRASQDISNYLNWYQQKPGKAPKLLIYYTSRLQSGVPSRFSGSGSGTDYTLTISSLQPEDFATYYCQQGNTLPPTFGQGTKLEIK

1. 950000
2. 820000
3. 830000

Look up kon of AB353 (antibody, V domains shown, Full-length humanized antibody made in HEK 293-6E; also called hMAK199VH.1/hMAK199VL.1b) VH: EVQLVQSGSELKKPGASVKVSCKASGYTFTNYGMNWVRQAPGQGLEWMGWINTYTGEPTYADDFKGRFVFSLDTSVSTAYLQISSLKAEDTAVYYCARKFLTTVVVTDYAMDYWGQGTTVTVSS VL: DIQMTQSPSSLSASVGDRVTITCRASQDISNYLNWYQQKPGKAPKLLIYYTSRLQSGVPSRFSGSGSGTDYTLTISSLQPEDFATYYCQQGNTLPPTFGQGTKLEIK and report it.
2e+06
